IC50 values, listed per item
test system: HCT-116; experiment: Cytotoxicity against human HCT116 cells assessed as reduction in cell number after 24 hrs by MTT assay; format: functional, cell-based; conditions: HCT-116, 24 h
Could you give me the number in µM? Just the number is fine.

Recorded IC50 for Cc1cc2oc(=O)c(Cc3c(O)c4cc(C)c(C)cc4oc3=O)c(O)c2cc1C , please?
201

Okay, now this compound:
Recorded IC50 for Cc1ccc2c(O)c(Cc3c(O)c4ccc(C)c(C)c4oc3=O)c(=O)oc2c1C , please?
178

----------
biological target: NAD(P)H dehydrogenase [quinone] 1 (Homo sapiens, UniProt P15559)
Sequence (P15559 whole entry): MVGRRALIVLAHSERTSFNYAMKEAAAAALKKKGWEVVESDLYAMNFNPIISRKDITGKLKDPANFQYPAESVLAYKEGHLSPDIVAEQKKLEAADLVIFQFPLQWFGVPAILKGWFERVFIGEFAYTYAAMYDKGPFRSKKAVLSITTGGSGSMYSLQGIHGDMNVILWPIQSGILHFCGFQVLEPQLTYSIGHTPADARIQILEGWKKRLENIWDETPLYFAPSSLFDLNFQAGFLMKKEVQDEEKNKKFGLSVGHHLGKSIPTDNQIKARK
pIC50: −log10 of the molar value.
Answer Condition not met if pIC50 is under 7, and Condition met if it is 7 or more.

Quick check, pIC50 >= 7? O=c1oc2ccc(Cl)cc2c(O)c1Cc1c(O)c2cc(Cl)ccc2oc1=O
Condition met

Quick check, pIC50 >= 7? Cc1ccc2oc(=O)c(Cc3c(O)c4cc(C)ccc4oc3=O)c(O)c2c1
Condition met

Quick check, pIC50 >= 7? CCCC(c1c(O)c2ccccc2oc1=O)c1c(O)c2ccccc2oc1=O
Condition not met

--- query ---
Quick check, pIC50 >= 7? COc1ccc2oc(=O)c(Cc3c(O)c4cc(OC)ccc4oc3=O)c(O)c2c1
Condition met

----------
tested on: HCT-116; experiment: Cytotoxicity against human HCT116 cells assessed as reduction in cell number after 24 hrs by MTT assay; format: functional, cell-based; conditions: HCT-116, 24 h
measuredMetric: pIC50
FYI, pIC50 means -log10 of a concentration in mol per litre.

These solved cases illustrate the format of a correct answer.
Recorded pIC50 for O=c1oc2ccccc2c(O)c1Cc1c(O)c2ccccc2oc1=O , please?
3.99

Recorded pIC50 for Cc1cc2oc(=O)c(Cc3ccc4ccccc4c3)c(O)c2cc1C , please?
3.68

Recorded pIC50 for Cc1cc2oc(=O)c(Cc3cccc4ccccc34)c(O)c2cc1C , please?
3.80

Okay, now this compound:
Recorded pIC50 for COc1ccc2oc(=O)c(Cc3c(O)c4cc(OC)ccc4oc3=O)c(O)c2c1 , please?
3.71

----------
system: HCT-116; assay: Cytotoxicity against human HCT116 cells assessed as reduction in cell number after 96 hrs by MTT assay; assay type: functional, cell-based; settings: HCT-116, 96 h
measuredMetric: IC50 (µM)
Could you give me the number in µM? Just the number is fine.

Recorded IC50 for COc1cccc2oc(=O)c(Cc3c(O)c4c(OC)cccc4oc3=O)c(O)c12 , please?
80

Recorded IC50 for Cc1ccc2c(O)c(Cc3c(O)c4ccc(C)c(C)c4oc3=O)c(=O)oc2c1C , please?
35

Recorded IC50 for Cc1ccc(Cc2c(O)c3cc(C)c(C)cc3oc2=O)cc1C , please?
176

Recorded IC50 for COc1ccc2oc(=O)c(Cc3c(O)c4cc(OC)ccc4oc3=O)c(O)c2c1 , please?
48

Recorded IC50 for Cc1cc2oc(=O)c(Cc3ccc4ccccc4c3)c(O)c2cc1C , please?
180

Recorded IC50 for O=c1oc2ccccc2c(O)c1Cc1c(O)c2ccccc2oc1=O , please?
19

Recorded IC50 for Cc1cc2oc(=O)c(Cc3cccc4ccccc34)c(O)c2cc1C , please?
56

Recorded IC50 for Cc1cc2oc(=O)c(Cc3ccccc3)c(O)c2cc1C , please?
178

Recorded IC50 for Cc1cc2oc(=O)c(Cc3c(O)c4cc(C)c(C)cc4oc3=O)c(O)c2cc1C , please?
35

Okay, now this molecule:
Recorded IC50 for COc1ccc2c(O)c(Cc3c(O)c4ccc(OC)cc4oc3=O)c(=O)oc2c1 , please?
187

----------
pIC50 values, listed per item
system: HCT-116; test: Cytotoxicity against human HCT116 cells assessed as reduction in cell number after 24 hrs by MTT assay; type: functional, cell-based; conditions: HCT-116, 24 h
pIC50: −log10 of the molar value.

Recorded pIC50 for Cc1cc2oc(=O)c(Cc3ccccc3)c(O)c2cc1C , please?
< 3.40

Recorded pIC50 for COc1ccc2c(O)c(Cc3c(O)c4ccc(OC)cc4oc3=O)c(=O)oc2c1 , please?
< 3.40

Recorded pIC50 for COc1cc2oc(=O)c(Cc3c(O)c4cc(OC)c(OC)cc4oc3=O)c(O)c2cc1OC , please?
< 3.40
